# Assay Target: T1, APC (303-739) (UniProt P25054 303-739)
# T1 construct: adenomatous polyposis coli (APC), residues 303-739; pET28a construct; also called APC WT; adenomatous polyposis coli; source: E. coli BL21 (DE3), purified (Ni-NTA)
# T1 sequence (looked up): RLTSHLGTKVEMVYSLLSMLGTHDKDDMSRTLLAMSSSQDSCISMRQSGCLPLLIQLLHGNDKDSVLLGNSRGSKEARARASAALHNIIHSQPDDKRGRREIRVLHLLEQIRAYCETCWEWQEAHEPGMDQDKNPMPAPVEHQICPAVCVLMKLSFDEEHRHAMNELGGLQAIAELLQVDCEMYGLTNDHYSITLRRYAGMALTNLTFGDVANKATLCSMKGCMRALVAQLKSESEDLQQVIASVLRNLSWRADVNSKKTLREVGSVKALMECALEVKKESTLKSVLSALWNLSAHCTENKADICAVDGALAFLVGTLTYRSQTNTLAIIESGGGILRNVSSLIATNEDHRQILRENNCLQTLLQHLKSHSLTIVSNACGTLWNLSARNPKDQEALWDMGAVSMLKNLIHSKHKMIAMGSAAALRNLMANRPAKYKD
# Method Notes: fluorescence polarisation; direct binding: tracer fixed at 20 nM, range of concentrations of APC (303-739), read after 1.5 h; EC50 by nonlinear regression
# Run Parameters: both partners purified
Primed or numbered codes have the meaning given here. The star is where a group is joined. FITC′ = fluorescein isothiocyanate; Cbz = O=C(OCc1ccccc1)*
Catalogue of pEC50 readings, one per entry.
pEC50 is a log-scale quantity: -log10 of the concentration expressed in molar.

Here are 3 binders together with their reported answers.
Binder	Recorded Measurement
Cbz-AGESLYENELISK(FITC′)-NH2 (source: synthetic peptide (general procedure B; FITC-labeled tracer peptides obtained from Changzhou Kanglong Biotech)) [tracer 8]	7.39
Cbz-AGESLYEGGGGGK(FITC′)-NH2 (source: synthetic peptide (general procedure B; FITC-labeled tracer peptides obtained from Changzhou Kanglong Biotech)) [tracer 12]	7.29
Cbz-AGESLYEGGGK(FITC′)-NH2 (source: synthetic peptide (general procedure B; FITC-labeled tracer peptides obtained from Changzhou Kanglong Biotech)) [tracer 13]	7.32

binder Cbz-AGESLYEGGGGGGGK(FITC′)-NH2 (source: synthetic peptide (general procedure B; FITC-labeled tracer peptides obtained from Changzhou Kanglong Biotech)) [tracer 11] , pEC50 observed: 7.28

Documented pEC50 of Cbz-AGESLYEGK(FITC′)-NH2 (source: synthetic peptide (general procedure B; FITC-labeled tracer peptides obtained from Changzhou Kanglong Biotech)) [tracer 14] : 7.30

# pEC50 of Cbz-AGESLYENK(FITC′)-NH2 (source: synthetic peptide (general procedure B; FITC-labeled tracer peptides obtained from Changzhou Kanglong Biotech)) [tracer 10] = 7.28

Measured pEC50 of Cbz-AGESLYENELK(FITC′)-NH2 (source: synthetic peptide (general procedure B; FITC-labeled tracer peptides obtained from Changzhou Kanglong Biotech)) [tracer 9] : 7.33
